Provenance of the data: patent US6288122A

Known remaining at 2 h, 5 µM of a selection of compounds
Experiment: in vitro
Details: human, microsomes, pH 7.4

NC(=O)C(c1ccccc1)(c1ccccc1)c1ccc(F)cc1 [Compound 4] | 80%
NC(=O)C(c1ccc(F)cc1)(c1ccc(F)cc1)c1cccc(F)c1 [Compound 16] | 57%
CNC(=O)C(c1ccccc1)(c1ccccc1)c1ccccc1 [Compound 22, reference compound] | 8%

Next:
Task: Need remaining at 2 h, 5 µM of NC(=O)C(c1ccccc1)(c1ccccc1)c1ccccc1 [Compound 20, reference compound] , thanks.
Result: 13%

* * *

Target: IKs (Cavia porcellus, UniProt O70344)
Construct: Recordings of IKs current were made using the whole cell patch clamp methodology on guinea pig myocytes; endogenous in cells
Sequence (Q60409 whole entry): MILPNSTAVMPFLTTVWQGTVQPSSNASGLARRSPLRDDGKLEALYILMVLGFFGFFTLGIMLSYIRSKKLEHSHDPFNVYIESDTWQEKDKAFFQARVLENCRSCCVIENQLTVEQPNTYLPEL
Sequence (O70344 whole entry): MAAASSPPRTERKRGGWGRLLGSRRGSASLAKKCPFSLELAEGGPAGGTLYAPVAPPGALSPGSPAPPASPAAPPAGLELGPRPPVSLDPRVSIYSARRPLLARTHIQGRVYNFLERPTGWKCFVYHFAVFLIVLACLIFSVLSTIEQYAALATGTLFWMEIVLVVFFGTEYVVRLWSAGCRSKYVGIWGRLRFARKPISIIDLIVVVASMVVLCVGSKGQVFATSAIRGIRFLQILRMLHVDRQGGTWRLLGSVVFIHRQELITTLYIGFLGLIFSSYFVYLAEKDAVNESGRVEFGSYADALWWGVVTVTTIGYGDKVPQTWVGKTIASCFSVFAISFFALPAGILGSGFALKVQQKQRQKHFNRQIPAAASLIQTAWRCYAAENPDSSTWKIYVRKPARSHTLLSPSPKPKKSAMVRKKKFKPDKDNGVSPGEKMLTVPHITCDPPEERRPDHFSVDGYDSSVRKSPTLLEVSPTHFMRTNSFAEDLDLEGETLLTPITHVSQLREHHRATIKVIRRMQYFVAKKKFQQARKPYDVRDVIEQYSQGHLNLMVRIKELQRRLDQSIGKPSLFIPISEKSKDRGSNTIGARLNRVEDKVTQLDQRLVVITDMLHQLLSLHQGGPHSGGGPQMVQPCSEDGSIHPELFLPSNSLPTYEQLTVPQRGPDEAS
Test: Whole cell patch clamp recordings of IKs current in guinea pig myocytes
Settings: estimated IC50, read-out: Est. IC50 Potency vs. IKs
We label by threshold. Values of IC50 strictly beneath 3000 nM are true (1). Values of 3000 nM and up are false (0).

Field: example entries. Status: answers known.
OC(c1ccccc1)(c1ccccc1)c1ccccc1Cl [Compound 21, reference compound] | true (1)
NC(=O)C(c1ccccc1)(c1ccccc1)c1ccccc1 [Compound 20, reference compound] | true (1)
NC(=O)C(c1ccccc1)(c1ccc(F)cc1)c1ccc(F)cc1 [Compound 3, bis(4-fluorophenyl)phenylacetamide] | true (1)
NC(=O)C(c1ccccc1)(c1ccccc1)c1ccc(F)cc1F | false (0)
NC(=O)C(c1ccccc1)(c1cccc(F)c1)c1cccc(F)c1 | false (0)

Task: Quick check: does NC(=O)[C@](c1ccccc1)(c1ccc(F)cc1)c1ccccc1F have IC50 under 3000 nM?
Result: true (1)

Task: Follow-up entry: NC(=O)C(c1ccccc1)(c1ccccc1)c1ccc(F)c(F)c1
Result: true (1)

* * *

Target: Gardos channel (Homo sapiens, UniProt O15554)
Construct: endogenous in cells; host or cells: red blood cells from heparinized whole blood
Sequence (O15554 whole entry): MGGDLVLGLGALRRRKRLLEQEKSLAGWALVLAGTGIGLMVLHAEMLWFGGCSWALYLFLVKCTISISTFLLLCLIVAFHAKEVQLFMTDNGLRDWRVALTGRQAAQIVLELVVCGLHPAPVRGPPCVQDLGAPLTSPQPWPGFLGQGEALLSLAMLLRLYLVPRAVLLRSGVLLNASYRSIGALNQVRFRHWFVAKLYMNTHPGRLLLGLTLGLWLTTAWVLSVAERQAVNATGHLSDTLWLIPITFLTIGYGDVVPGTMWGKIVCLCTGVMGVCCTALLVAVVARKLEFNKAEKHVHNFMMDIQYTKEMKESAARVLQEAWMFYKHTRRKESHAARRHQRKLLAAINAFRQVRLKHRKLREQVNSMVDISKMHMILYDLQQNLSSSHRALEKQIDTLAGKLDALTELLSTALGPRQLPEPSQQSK
Assay: Inhibition of the Gardos channel in red blood cells (86Rb flux)
Assay type: cell-based
Conditions: erythrocytes, 86Rb; read-out: IC50 Potency vs. Gardos
recorded_metric: pIC50
pIC50 here is simply -log10 of the concentration when that concentration is written in mol/L.

NC(=O)C(c1ccccc1)(c1ccccc1)c1ccccc1 [Compound 20, reference compound] | 7.30
NC(=O)C(c1ccccc1)(c1ccccc1)c1ccc(F)cc1F [Compound 8] | 7.47
NC(=O)C(c1ccccc1)(c1cccc(F)c1)c1cccc(F)c1 [Compound 9] | 7.52

Task: Value lookup for pIC50; key = NC(=O)C(c1ccc(F)cc1)(c1cccc(F)c1)c1cccc(F)c1 [Compound 10]
Result: 7.92

Task: Query NC(=O)C(c1ccccc1)(c1ccccc1)c1ccc(F)cc1 [Compound 4] next
Result: 7.89

Task: Try this molecule next: NC(=O)C(c1ccccc1)(c1ccccc1)c1ccccc1F [Compound 2]
Result: 7.82

Task: Repeat for the following molecule: NC(=O)[C@](c1ccccc1)(c1ccc(F)cc1)c1ccccc1F [Compound 12]
Result: 8.30

Task: Another molecule to check: NC(=O)C(c1ccccc1)(c1ccccc1)c1c(F)c(F)c(F)c(F)c1F [Compound 6]
Result: 7.43

Task: Same read-out for NC(=O)[C@@](c1ccccc1)(c1ccc(F)cc1)c1ccccc1F [Compound 11] ?
Result: 8.30

Task: Repeat for the following molecule: CNC(=O)C(c1ccccc1)(c1ccccc1)c1ccccc1 [Compound 22, reference compound]
Result: 7.00

* * *

Target: IKs (Cavia porcellus, UniProt O70344)
Construct: Recordings of IKs current were made using the whole cell patch clamp methodology on guinea pig myocytes; endogenous in cells
Experiment: Whole cell patch clamp recordings of IKs current in guinea pig myocytes
Conditions: estimated IC50, read-out: Est. IC50 Potency vs. IKs
Mark each entry MET if its IC50 sits below 2000 nM, and NOT MET for all others.

Reference set, count: 6
NC(=O)[C@@](c1ccccc1)(c1ccc(F)cc1)c1ccccc1F [Compound 11] | MET
NC(=O)C(c1ccc(F)cc1)(c1cccc(F)c1)c1cccc(F)c1 [Compound 10] | MET
NC(=O)C(c1ccc(F)cc1)(c1ccc(F)cc1)c1ccc(F)cc1 [Compound 13] | MET
NC(=O)C(c1ccc(F)cc1)(c1ccc(F)cc1)c1ccccc1F [Compound 5] | MET
NC(=O)C(c1cccc(F)c1)(c1cccc(F)c1)c1cccc(F)c1 [Compound 17] | NOT MET
NC(=O)C(c1ccc(F)cc1)(c1ccc(F)cc1)c1cccc(F)c1 [Compound 16] | MET

Task: IC50 strictly < 2000 nM for this compound? CNC(=O)C(c1ccccc1)(c1ccccc1)c1ccccc1 [Compound 22, reference compound]
Result: NOT MET

Task: Follow-up item: NC(=O)C(c1ccccc1)(c1ccccc1)c1ccccc1Cl [Compound 18]
Result: NOT MET

* * *

Test: in vitro
Settings: human, microsomes, pH 7.4
Simple rule here: remaining at 2 h, 5 µM less than 50% is MET, otherwise NOT MET.

Task: Strictly below 50%: is that where remaining at 2 h, 5 µM of NC(=O)C(c1ccccc1)(c1ccccc1F)c1ccccc1F sits?
Result: MET

* * *

As shown below, each of these compounds has a reported remaining at 2 h, 5 µM value.
Experiment: in vitro
Details: human, microsomes, pH 7.4
Lab book: enter the figure in %, no units written.

NC(=O)C(c1ccccc1)(c1ccccc1)c1ccccc1Cl | 6

Task: Dear colleague, I am looking for the recorded remaining at 2 h, 5 µM of the following compound: OC(c1ccccc1)(c1ccccc1)c1ccccc1Cl [Compound 21, reference compound]
Result: 35

Task: Please do the same for NC(=O)C(c1ccccc1)(c1ccccc1)c1ccccc1F as well.
Result: 80

Task: Subsequent entry: NC(=O)C(c1ccc(F)cc1)(c1cccc(F)c1)c1cccc(F)c1
Result: 59

Task: Also check NC(=O)C(c1ccc(F)cc1)(c1ccc(F)cc1)c1ccc(F)cc1
Result: 53

Task: And what about the compound Clc1ccccc1C(c1ccccc1)(c1ccccc1)n1ccnc1 ?
Result: 4

Task: What about this compound? NC(=O)C(c1cccc(F)c1)(c1cccc(F)c1)c1cccc(F)c1
Result: 18

Task: Try the compound NC(=O)C(c1ccccc1)(c1ccccc1)c1ccc(F)cc1F
Result: 39

Task: // next record NC(=O)C(c1ccccc1)(c1cccc(F)c1)c1cccc(F)c1
Result: 3

Task: Also need NC(=O)C(c1ccccc1)(c1ccc(F)cc1)c1ccccc1F (stereo not shown) , thanks.
Result: 64

* * *

remaining at 2 h, 5 µM for assorted compounds
Assay: in vitro
Details: human, microsomes, pH 7.4
# unit: % | format: bare number

The examples below pair each entry with its known result.
NC(=O)C(c1ccccc1)(c1ccc(F)cc1)c1ccc(F)cc1 [Compound 3, bis(4-fluorophenyl)phenylacetamide] | 76
NC(=O)[C@@](c1ccccc1)(c1ccc(F)cc1)c1ccccc1F | 78
NC(=O)C(c1ccc(F)cc1)(c1ccccc1F)c1ccccc1F | 53

Task: Which remaining at 2 h, 5 µM is listed for NC(=O)C(c1ccc(F)cc1)(c1ccc(F)cc1)c1ccccc1F ?
Result: 71

Task: Would you kindly repeat that for NC(=O)C(c1ccccc1)(c1ccccc1)c1ccc(F)c(F)c1 ?
Result: 15

Task: And NC(=O)[C@](c1ccccc1)(c1ccc(F)cc1)c1ccccc1F ?
Result: 44
